target: EBOV VP35 RBD (Ebola virus, UniProt Q05127 216-340); test: dual-filter dot blot; Hill 3.6±0.4; 10 mM Tris pH 8.0, 200 mM NaCl, 2 mM TCEP ([…], and ITC); temperature not stated; details: protein: recombinant; tags: 6xHis, cleaved; label: 5'-32P sense strand (dot blot); none in ITC
Sequence (Q05127 216-340): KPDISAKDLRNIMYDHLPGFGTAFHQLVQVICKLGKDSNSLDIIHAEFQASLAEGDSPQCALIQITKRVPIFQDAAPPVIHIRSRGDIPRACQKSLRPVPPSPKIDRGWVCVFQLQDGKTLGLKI
quantityKind: Kd (µM)
Numbers only, in µM.

Please supply the value of reported Kd for the item 18-bp dsRNA with 3' overhang (dsRNA) RNA 1: AGAAGGAGGGAGGGAGGAGAG RNA 2: CUCUCCUCCCUCCCUCCUUCU 17.1
